- MEASURED TARGET: hSTING (Homo sapiens, UniProt Q86WV6, G230A/H232R/R293Q/R71H)
- Sequence (Q86WV6 whole entry R71H/G230A/H232R/R293Q): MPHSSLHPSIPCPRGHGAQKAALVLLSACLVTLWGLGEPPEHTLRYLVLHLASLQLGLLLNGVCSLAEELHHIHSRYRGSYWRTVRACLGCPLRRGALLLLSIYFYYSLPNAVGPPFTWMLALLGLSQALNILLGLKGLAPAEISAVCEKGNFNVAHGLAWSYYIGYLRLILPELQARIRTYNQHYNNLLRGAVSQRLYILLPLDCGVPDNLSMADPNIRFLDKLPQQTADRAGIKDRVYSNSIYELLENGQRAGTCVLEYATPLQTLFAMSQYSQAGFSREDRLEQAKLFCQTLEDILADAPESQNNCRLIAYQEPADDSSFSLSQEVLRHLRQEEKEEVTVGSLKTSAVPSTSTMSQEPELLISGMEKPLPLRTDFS
- PROTOCOL DESCRIPTION: STING reporter assay (luciferase) in THP1-Dual KO-IFNAR2 cells stimulated with 2'3'cGAMP
- CONDITION: 2'3'cGAMP 15 μM, 24 h, luciferase reporter activity
pEC50: −log10 of the molar value.
RECORDED ENDPOINT: pEC50

Solved cases below.
O=C(Nc1cnn(C2CCN(CCC(F)(F)F)CC2)c1)Nc1c[nH]c2ccc(Cl)cc12 [Compound 223]; 5.30 to 6.00
O=C(Nc1ccnc(C2CCC(F)(F)CC2)c1)Nc1c[nH]c2ccccc12 [Compound 254]; 6.00 to 6.70
C#CCC1CCN(c2ccc(NC(=O)Nc3c[nH]c4ccccc34)cn2)CC1 [Compound 172]; 6.00 to 6.70
O=C(Nc1cnc(N2CCC(F)(F)CC2)c(Cl)c1)Nc1c[nH]c2ccc(Br)cc12 [Compound 208]; 5.30 to 6.00

# ---- query compound ----
Using the record for O=C(Nc1ccnc(C2CCC(F)(F)CC2)c1)Nc1c[nH]c2cc(F)c(F)cc12 [Compound 220] , report its pEC50. 6.00 to 6.70
